Biological target: Replicative DNA helicase DnaB (Mycobacterium tuberculosis, UniProt P9WMR3)
Sequence (P9WMR3 whole entry): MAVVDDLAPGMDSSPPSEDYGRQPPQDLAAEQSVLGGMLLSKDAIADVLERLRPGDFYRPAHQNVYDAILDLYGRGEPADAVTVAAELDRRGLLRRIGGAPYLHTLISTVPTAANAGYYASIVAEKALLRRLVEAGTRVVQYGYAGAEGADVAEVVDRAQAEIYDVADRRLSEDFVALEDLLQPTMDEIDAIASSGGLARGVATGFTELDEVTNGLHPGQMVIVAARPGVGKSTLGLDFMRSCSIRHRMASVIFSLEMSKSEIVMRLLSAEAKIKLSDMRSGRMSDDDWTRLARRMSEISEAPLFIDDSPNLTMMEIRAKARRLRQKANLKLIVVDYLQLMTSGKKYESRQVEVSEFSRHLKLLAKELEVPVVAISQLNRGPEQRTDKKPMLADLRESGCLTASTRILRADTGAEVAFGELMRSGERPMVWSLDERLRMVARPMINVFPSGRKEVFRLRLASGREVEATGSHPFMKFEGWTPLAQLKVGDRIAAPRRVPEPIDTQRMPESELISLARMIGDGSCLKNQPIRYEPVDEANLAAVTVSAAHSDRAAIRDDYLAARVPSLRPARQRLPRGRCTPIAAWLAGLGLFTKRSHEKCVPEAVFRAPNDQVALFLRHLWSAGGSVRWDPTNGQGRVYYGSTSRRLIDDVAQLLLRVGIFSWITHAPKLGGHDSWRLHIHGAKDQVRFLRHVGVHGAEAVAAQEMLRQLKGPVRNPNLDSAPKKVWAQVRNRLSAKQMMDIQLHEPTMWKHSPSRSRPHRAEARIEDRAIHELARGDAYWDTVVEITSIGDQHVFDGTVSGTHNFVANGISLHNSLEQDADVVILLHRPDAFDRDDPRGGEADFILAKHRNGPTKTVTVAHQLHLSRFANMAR
Assay: DnaB intein splicing inhibitors, dose response, biochemical, cell-free fluorescence (AID 449749)
Type: functional
The source made the active and inactive calls.
Outcome codes: active, inactive

In [3]: df
Out[3]:
                                    compound  group_label
 0                  CC1=Nc2cccc3cccc(c23)N1C     inactive
 1  Cc1cc(-c2[nH]nc3c2C(c2ccc(Cl)cc2)C(C#N)=C(N)O3)c(C)s1 (configuration not stated)       active
 2            COc1ccccc1N1C(=O)Cc2ccccc2C1=O     inactive
 3                O=C1C(Br)=Cc2cccc3cccc1c23     inactive
 4  O=C(O)CSc1cc(NS(=O)(=O)c2ccc(Cl)cc2)c2ccccc2c1O       active
 5  CNCC(O)CN(c1ccccc1)c1ccccc1 (configuration not stated)       active
 6  COc1cccc(OC(=O)CSc2nnc(-c3ccccc3Br)o2)c1       active
 7  COc1ccccc1N(C(=O)CCl)c1cn(C(C)=O)c2ccccc12       active
 8  CCOc1ccccc1N1CCN(C(=O)c2ccc(-c3ccc(OC(C)=O)cc3)cc2)CC1       active
 9  Cc1nn(-c2ccccc2)c(Cl)c1CN(C(=O)CCl)c1ccc(Cl)cc1       active
10              CCN(CC)c1ccc2oc(=O)c(C)nc2c1     inactive
11            O=C(c1ccc(Cl)cc1)n1cnc2ccccc21       active

====

Biological target: Beta Lactamase (Pseudomonas aeruginosa)
Sequence (Q932Y6 whole entry): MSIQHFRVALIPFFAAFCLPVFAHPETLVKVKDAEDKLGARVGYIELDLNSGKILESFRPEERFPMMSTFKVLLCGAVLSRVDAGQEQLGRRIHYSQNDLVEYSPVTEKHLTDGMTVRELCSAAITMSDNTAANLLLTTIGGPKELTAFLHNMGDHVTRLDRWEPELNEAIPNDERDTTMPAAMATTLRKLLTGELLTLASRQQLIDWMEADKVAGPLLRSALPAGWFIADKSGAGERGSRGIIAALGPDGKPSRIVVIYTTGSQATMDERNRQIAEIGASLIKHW
Experiment: BLA reporter interference, concentration series – BLA reporter cells, FRET fluorescence, artefact control for TLR9-MyD88 binding inhibitor project, dose response (AID 588341);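 also: cell based assay in CHO-K1 cells stably expressing beta-lactamase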
Assay type: cell-based
Calls of active or inactive are those of the source.
Labels: active, inactive

                            chemical_smiles  group_label
0  Cc1cccc(C)c1-n1c(C)cc(/C=N\Nc2ccc([N+](=O)[O-])cn2)c1C       active
1  CN(C)C=O.CN(C)c1ccc(/C=C/c2nc3ccccc3c(=O)n2-c2ccc(C(=O)O)cc2)cc1       active
2       COc1cc(OC)nc(-n2ncc(Br)c(Br)c2=O)n1     inactive
3            Nc1cc(Cl)c2nonc2c1[N+](=O)[O-]     inactive

====

Biological target: Orexin/Hypocretin receptor type 1 (Homo sapiens);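 also: antagonism measured against Orexin-A challenge at about its EC80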
Sequence (O43613 whole entry): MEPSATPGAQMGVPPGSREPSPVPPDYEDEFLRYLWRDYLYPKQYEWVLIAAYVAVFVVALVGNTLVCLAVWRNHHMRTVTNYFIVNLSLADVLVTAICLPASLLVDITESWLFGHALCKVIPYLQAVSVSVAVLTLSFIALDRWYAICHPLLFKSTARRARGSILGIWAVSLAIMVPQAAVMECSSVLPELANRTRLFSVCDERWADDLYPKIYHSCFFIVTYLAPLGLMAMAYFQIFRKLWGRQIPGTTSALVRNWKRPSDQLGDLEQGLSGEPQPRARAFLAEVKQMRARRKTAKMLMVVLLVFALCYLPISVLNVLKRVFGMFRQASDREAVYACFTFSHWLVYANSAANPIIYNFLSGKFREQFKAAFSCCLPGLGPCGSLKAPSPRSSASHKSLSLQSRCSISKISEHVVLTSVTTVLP
Test: Homogeneous Time Resolved Fluorescence (HTRF)-based cell-based high throughput dose response assay for antagonists of the orexin 1 receptor (OX1R; HCRTR1). [Related pubchem assays (depositor defined):AID434989, AID435008, AID463079, AID485270, AID492963, AID492964, AID492965, AID493232, AID504717, AID504718]
Format: functional
Calls of active or inactive are those of the source.
Outcomes: active, inactive

In [3]: df
Out[3]:
                            chemical_smiles                             target_system  group_label
0          COc1cc(OC)c(-c2nc3ccccc3s2)cc1OC  Orexin/Hypocretin receptor type 1 (Homo sapiens)       active
1      COc1ccc(-c2nn3c(-c4ccccc4)nnc3s2)cc1  Orexin/Hypocretin receptor type 1 (Homo sapiens)       active
2           Cc1ccc(NC(=O)c2ccc3ccccc3n2)nc1  Orexin/Hypocretin receptor type 1 (Homo sapiens)       active
3  O=C(NCCN1C(=O)S/C(=C\c2ccccc2)C1=O)c1cc(S(=O)(=O)N2CCOCC2)c(Cl)cc1Cl  Orexin/Hypocretin receptor type 1 (Homo sapiens)     inactive

====

Molecular target: UniProtKB P9WHJ3
Assay: Fluorescence Cell-Free Homogeneous Dose Retest to Identify Inhibitors of RecA-Intein Splicing Activity. [Related pubchem assays (depositor defined):AID2097, AID2223, AID489010, AID492950]
Format: functional
Active and inactive are the calls of the source.
Outcomes: active, inactive

>>> print(df.to_string())
                                   molecule     target_system  group_label
0  COc1cccc(OC(=O)CSc2nnc(-c3ccccc3Br)o2)c1  UniProtKB P9WHJ3       active
1  COc1cc(OC)cc(C2C(C#N)=C(N)Oc3[nH]nc(-c4cccnc4)c32)c1 (stereo not given)  UniProtKB P9WHJ3       active
2                  CC1=Nc2cccc3cccc(c23)N1C  UniProtKB P9WHJ3     inactive
3  Cc1nn(-c2ccccc2)c(Cl)c1CN(C(=O)CCl)c1ccc(Cl)cc1  UniProtKB P9WHJ3       active
4  COc1ccccc1N(C(=O)CCl)c1cn(C(C)=O)c2ccccc12  UniProtKB P9WHJ3       active

====

Cytochrome P450 2D6 (Homo sapiens, UniProt P10635) measurements of AC50, listed per entry.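 Also: CYP2D6 member of a cytochrome P450 panel assay.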
Sequence (P10635 whole entry): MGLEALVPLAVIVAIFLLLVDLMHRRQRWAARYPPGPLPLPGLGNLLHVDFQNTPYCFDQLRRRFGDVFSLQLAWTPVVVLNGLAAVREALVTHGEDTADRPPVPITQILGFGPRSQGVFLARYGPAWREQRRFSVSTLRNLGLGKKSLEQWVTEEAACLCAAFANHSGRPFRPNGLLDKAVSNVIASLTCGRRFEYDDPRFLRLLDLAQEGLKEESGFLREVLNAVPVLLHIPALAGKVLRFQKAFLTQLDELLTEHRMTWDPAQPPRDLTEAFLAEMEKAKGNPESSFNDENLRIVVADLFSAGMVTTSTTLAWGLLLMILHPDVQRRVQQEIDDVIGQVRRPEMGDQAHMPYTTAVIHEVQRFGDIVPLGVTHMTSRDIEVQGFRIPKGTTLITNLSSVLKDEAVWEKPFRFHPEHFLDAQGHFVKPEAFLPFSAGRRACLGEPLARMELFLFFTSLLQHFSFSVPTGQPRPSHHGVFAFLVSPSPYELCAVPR
endpoint: AC50

>>> df
                            chemical_smiles  observed_measurement
0  Fc1nc(N2CCCC2)c(F)c(Oc2ccccc2Oc2c(F)c(F)nc(N3CCCC3)c2F)c1F          inconclusive
1                 CCCCN=C(S)NNC(=O)c1sccc1C          inconclusive
2  CCOC(=O)CSc1nnc(NC(=O)c2cccc(S(=O)(=O)N3CCCCCC3)c2)s1          inconclusive
3  COc1ccc(C(=O)Nc2ccc(NC(=O)c3ccco3)c(Cl)c2)cc1OC          inconclusive
4                               NCCCCC(=O)O          inconclusive

====

Peptide text beside a SMILES is read from it. * marks the point of attachment. Cbz = O=C(OCc1ccccc1)*
Entries below carry reported AC50 on Cytochrome P450 2C9 (Homo sapiens, UniProt P11712).
Sequence (P11712 whole entry): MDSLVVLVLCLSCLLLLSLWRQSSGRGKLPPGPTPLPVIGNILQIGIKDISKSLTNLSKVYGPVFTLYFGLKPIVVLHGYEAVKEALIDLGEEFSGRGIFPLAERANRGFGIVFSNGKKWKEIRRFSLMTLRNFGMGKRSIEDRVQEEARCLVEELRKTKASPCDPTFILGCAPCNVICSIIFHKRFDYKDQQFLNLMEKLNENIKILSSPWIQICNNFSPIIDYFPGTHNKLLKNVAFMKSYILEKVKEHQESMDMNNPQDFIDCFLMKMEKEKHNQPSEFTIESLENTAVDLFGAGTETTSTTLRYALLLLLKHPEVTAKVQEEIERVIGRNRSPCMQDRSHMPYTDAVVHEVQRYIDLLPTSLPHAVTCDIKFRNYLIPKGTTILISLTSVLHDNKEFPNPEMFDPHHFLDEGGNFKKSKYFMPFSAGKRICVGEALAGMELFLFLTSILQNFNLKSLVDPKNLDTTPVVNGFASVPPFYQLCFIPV
endpoint: AC50

In [3]: df
Out[3]:
                                    compound                             target_system  endpoint      observed_measurement
 0  CC(=O)Nc1ccc(N2CCCCC2)c(C(=O)Nc2cccc(C)c2)c1  Cytochrome P450 2C9 (Homo sapiens, UniProt P11712)      AC50    12.6 µM (inconclusive)
 1  COc1ccc(NS(=O)(=O)c2cc(-c3nnnn3C)ccc2OC)cc1  Cytochrome P450 2C9 (Homo sapiens, UniProt P11712)      AC50    25.1 µM (inconclusive)
 2  Fc1nc(N2CCCC2)c(F)c(Oc2ccccc2Oc2c(F)c(F)nc(N3CCCC3)c2F)c1F  Cytochrome P450 2C9 (Homo sapiens, UniProt P11712)      AC50       1 µM (inconclusive)
 3  CCCC1CCC(c2ccc(C(N)=O)cc2)CC1 (stereo not drawn)  Cytochrome P450 2C9 (Homo sapiens, UniProt P11712)      AC50  0.0158 µM (inconclusive)
 4     N=C(N)SCc1cccc(-c2nc3ccccc3c(=O)o2)c1  Cytochrome P450 2C9 (Homo sapiens, UniProt P11712)      AC50    5.01 µM (inconclusive)
 5  COc1ccc(-c2cnnc(CCCn3ccnc3-c3ccccc3)n2)cc1  Cytochrome P450 2C9 (Homo sapiens, UniProt P11712)      AC50  0.0126 µM (inconclusive)
 6   O=C(c1cn(-c2ccccc2)nc1-c1cccs1)N1CCOCC1  Cytochrome P450 2C9 (Homo sapiens, UniProt P11712)      AC50    39.8 µM (inconclusive)
 7  N#CCCn1c(=O)c(-c2ccccc2)nc2cnc(Oc3ccccc3)nc21  Cytochrome P450 2C9 (Homo sapiens, UniProt P11712)      AC50    15.8 µM (inconclusive)
 8    O=C(CSc1nnc(CNc2ccc(F)cc2)o1)OC1CCCCC1  Cytochrome P450 2C9 (Homo sapiens, UniProt P11712)      AC50    17.8 µM (inconclusive)
 9                     CC(C)CCN=C(S)NC1CCCC1  Cytochrome P450 2C9 (Homo sapiens, UniProt P11712)      AC50    39.8 µM (inconclusive)
10  CCN1C(=O)C(O)(CC(=O)/C=C/C=C/c2ccccc2)c2ccccc21 (stereo not drawn)  Cytochrome P450 2C9 (Homo sapiens, UniProt P11712)      AC50   0.141 µM (inconclusive)
11  CC(C)[C@H](NC(=O)OCc1ccccc1)C(=O)N[C@H](C=O)Cc1ccccc1 (Cbz-Val-Phe-aldehyde)  Cytochrome P450 2C9 (Homo sapiens, UniProt P11712)      AC50    39.8 µM (inconclusive)
12  C[C@@H](C(=O)O)c1ccc(C(=O)c2cccs2)cc1 [(R)-SUPROFEN]  Cytochrome P450 2C9 (Homo sapiens, UniProt P11712)      AC50    12.6 µM (inconclusive)
13  CCc1ccc(N(C(=O)CNC(=O)c2cccs2)C(C(=O)NC(C)(C)C)c2cc(OC)c(OC)c(OC)c2)cc1 (stereo not drawn)  Cytochrome P450 2C9 (Homo sapiens, UniProt P11712)      AC50    28.2 µM (inconclusive)
14  N#CC(c1ccccc1F)(c1ncc(C(F)(F)F)cc1Cl)N1CCOCC1 (stereo not drawn)  Cytochrome P450 2C9 (Homo sapiens, UniProt P11712)      AC50    31.6 µM (inconclusive)
15  C[C@H]1CCCC=CC2C[C@H](O)C[C@@H]2[C@H](O)/C=C\C(=O)O1 (stereo partly drawn)  Cytochrome P450 2C9 (Homo sapiens, UniProt P11712)      AC50    15.8 µM (inconclusive)
16  COc1cc(CN2CCN(C(=O)CC(C)C)CC2)cc(OC)c1OC  Cytochrome P450 2C9 (Homo sapiens, UniProt P11712)      AC50    28.2 µM (inconclusive)
17  CC(=O)N1CCC2(CC1)CCN(C(c1ccccc1)c1ccccc1)CC2  Cytochrome P450 2C9 (Homo sapiens, UniProt P11712)      AC50    39.8 µM (inconclusive)
18  COc1ccc(-n2c3c(c(=O)[nH]c2=O)C(C(F)(F)F)(C(F)(F)F)NC(CC(C)C)=N3)cc1  Cytochrome P450 2C9 (Homo sapiens, UniProt P11712)      AC50    28.2 µM (inconclusive)
19  CCC(C)NC(=O)c1ccccc1NC(=O)Nc1ccccc1 (stereo not drawn)  Cytochrome P450 2C9 (Homo sapiens, UniProt P11712)      AC50    15.8 µM (inconclusive)
20  CC(C)COC(=O)OCN1C(=O)CN(CCN2CC(=O)N(COC(=O)OCC(C)C)C(=O)C2)CC1=O  Cytochrome P450 2C9 (Homo sapiens, UniProt P11712)      AC50    39.8 µM (inconclusive)
21               O=C(CCNc1cccc(Cl)c1)c1cccs1  Cytochrome P450 2C9 (Homo sapiens, UniProt P11712)      AC50      20 µM (inconclusive)
22             S=C1SCN(Cc2ccccn2)CN1Cc1ccco1  Cytochrome P450 2C9 (Homo sapiens, UniProt P11712)      AC50    14.1 µM (inconclusive)
